- target_of_assay: DPP-IV (Homo sapiens, UniProt P27487)
- Construct: Soluble human DPP-IV lacking the transmembrane anchor (Gly31-Pro766); Pre-Pro-alpha-mating factor leader (secretion fusion) (N, cleaved yes); made in house
- Sequence (P27487 31-766): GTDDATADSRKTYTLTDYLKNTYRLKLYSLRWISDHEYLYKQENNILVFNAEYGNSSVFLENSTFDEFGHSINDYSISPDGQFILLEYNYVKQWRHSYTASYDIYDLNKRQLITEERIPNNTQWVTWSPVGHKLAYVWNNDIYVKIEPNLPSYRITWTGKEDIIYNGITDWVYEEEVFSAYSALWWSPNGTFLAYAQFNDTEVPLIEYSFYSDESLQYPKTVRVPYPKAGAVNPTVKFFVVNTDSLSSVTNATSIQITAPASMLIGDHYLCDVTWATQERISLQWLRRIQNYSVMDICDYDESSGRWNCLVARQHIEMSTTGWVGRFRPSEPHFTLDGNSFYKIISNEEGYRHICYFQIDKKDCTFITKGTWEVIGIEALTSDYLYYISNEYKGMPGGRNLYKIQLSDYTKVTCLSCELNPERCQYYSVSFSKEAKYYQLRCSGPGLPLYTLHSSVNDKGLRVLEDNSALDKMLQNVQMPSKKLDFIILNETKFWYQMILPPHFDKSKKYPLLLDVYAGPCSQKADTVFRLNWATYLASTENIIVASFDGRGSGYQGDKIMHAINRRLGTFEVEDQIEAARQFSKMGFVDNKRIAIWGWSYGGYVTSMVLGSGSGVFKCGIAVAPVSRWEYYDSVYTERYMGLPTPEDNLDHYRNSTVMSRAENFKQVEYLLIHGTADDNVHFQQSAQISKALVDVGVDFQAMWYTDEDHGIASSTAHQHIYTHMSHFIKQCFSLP
- method_summary: Continuous fluorimetric assay of inhibition of DPP-IV peptidase activity (Gly-Pro-AMC cleavage)
- Format: biochemical
- condition_parameters: 50 pM DPP-IV, 16 μM Gly-Pro-AMC, pH 7.4, 25° C.; values grouped in 2 classes; read-out: IC50 for inhibition of DPP-IV peptidase activity
pIC50: −log10 of the molar value.
observable: pIC50

[[record]]
molecule = "N[C@@H](CC(=O)N1CCCC(Cc2ccccc2Cl)C1)Cc1ccccc1F (some centres unmarked) [Example 33]"
result = "5.70 to 6.30"

[[record]]
molecule = "N[C@@H](CC(=O)N1CCCC(Oc2ccccc2)C1)Cc1ccccc1F (some centres unmarked) [Example 34]"
result = "> 6.30"

[[record]]
molecule = "CCN(CC)C(=O)C1CCCN(C(=O)C[C@H](N)Cc2ccccc2F)C1 (some centres unmarked) [Example 11]"
result = "5.70 to 6.30"

[[record]]
molecule = "N[C@@H](CC(=O)N1CC(C(=O)Nc2ccccn2)C1)Cc1ccccc1F [Example 50]"
result = "5.70 to 6.30"

[[record]]
molecule = "N[C@@H](CC(=O)N1CC(C(=O)NCc2ccccc2)C1)Cc1ccccc1F [Example 49]"
result = "5.70 to 6.30"


###

Examples of molecules with documented pIC50 follow.
- target_of_assay: DPP-IV (Homo sapiens)
- Construct: Soluble human DPP-IV lacking the transmembrane anchor (Gly31-Pro766); Pre-Pro-alpha-mating factor leader (secretion fusion) (N, cleaved yes); made in house
- method_summary: Continuous fluorimetric assay of inhibition of DPP-IV peptidase activity (Gly-Pro-AMC cleavage)
- Format: biochemical
- condition_parameters: 50 pM DPP-IV, 16 μM Gly-Pro-AMC, pH 7.4, 25° C.; values grouped in 2 classes; read-out: IC50 for inhibition of DPP-IV peptidase activity
pIC50: −log10 of the molar value. Structures can show the parent of a compound that is named as a salt.
observable: pIC50

[[record]]
molecule = "N[C@@H](CC(=O)N1CCC[C@H]1Cc1ccccc1)Cc1ccccc1F (single isomer, unassigned)"
observable = "pIC50"
result = "> 6.30"

[[record]]
molecule = "N[C@@H](CC(=O)N1CC[C@@H](NC(=O)c2ccccc2)C1)Cc1ccccc1F [Example 55, trifluoroacetic acid salt]"
observable = "pIC50"
result = "> 6.30"

[[record]]
molecule = "N[C@@H](CC(=O)N1CCCC1Cc1ccccc1)Cc1ccccc1F (mixture of isomers)"
observable = "pIC50"
result = "> 6.30"

[[record]]
molecule = "N[C@@H](CC(=O)N1CCC(N2CCCCC2=O)CC1)Cc1ccccc1F"
observable = "pIC50"
result = "5.70 to 6.30"

[[record]]
molecule = "N[C@@H](CC(=O)N1CCC(N(C2CC2)S(=O)(=O)c2ccc(Cl)cc2)CC1)Cc1ccccc1F"
observable = "pIC50"
result = "> 6.30"

[[record]]
molecule = "N[C@@H](CC(=O)N1CCC(N2CCOCC2)CC1)Cc1ccccc1F"
observable = "pIC50"
result = "5.70 to 6.30"

[[record]]
molecule = "N[C@@H](CC(=O)N1CCC(c2ccc(Cl)cc2)CC1)Cc1ccccc1F"
observable = "pIC50"
result = "5.70 to 6.30"

[[record]]
molecule = "N[C@@H](CC(=O)N1CCC(C(=O)NCCO)CC1)Cc1ccccc1F"
observable = "pIC50"
result = "5.70 to 6.30"

[[record]]
molecule = "N[C@@H](CC(=O)N1CCCC1Cc1cccnc1)Cc1ccccc1F (some centres unmarked)"
observable = "pIC50"
result = "> 6.30"

[[record]]
molecule = "N[C@@H](CC(=O)N1CCC(Nc2cccc(S(=O)(=O)C(F)(F)F)c2)CC1)Cc1ccccc1F"
observable = "pIC50"
result = "> 6.30"

[[record]]
molecule = "N[C@@H](CC(=O)N1CC[C@H](NC(=O)c2ccccc2)C1)Cc1ccccc1F [Example 53, trifluoroacetic acid salt]"
observable = "pIC50"
result = "> 6.30"

[[record]]
molecule = "N[C@@H](CC(=O)N1CCC(c2ccccc2C(F)(F)F)CC1)Cc1ccccc1F"
observable = "pIC50"
result = "> 6.30"

[[record]]
molecule = "N[C@@H](CC(=O)N1CCC(c2nnc(-c3ccc(F)cc3)o2)CC1)Cc1ccccc1F"
observable = "pIC50"
result = "> 6.30"

[[record]]
molecule = "N[C@@H](CC(=O)N1CCC(c2nc(-c3cnccn3)no2)CC1)Cc1ccccc1F"
observable = "pIC50"
result = "> 6.30"

[[record]]
molecule = "N[C@@H](CC(=O)N1CCCC(C(F)(F)F)C1)Cc1ccccc1F (some centres unmarked)"
observable = "pIC50"
result = "5.70 to 6.30"

[[record]]
molecule = "N[C@@H](CC(=O)N1CCC[C@@H]1Cc1ccccc1)Cc1ccccc1F (single isomer, unassigned)"
observable = "pIC50"
result = "> 6.30"

[[record]]
molecule = "N[C@@H](CC(=O)N1CCCC(F)C1)Cc1ccccc1F (some centres unmarked)"
observable = "pIC50"
result = "5.70 to 6.30"

[[record]]
molecule = "N[C@@H](CC(=O)N1CCC(CO)CC1)Cc1ccccc1F"
observable = "pIC50"
result = "5.70 to 6.30"

[[record]]
molecule = "N[C@@H](CC(=O)N1CCC(c2nc(-c3cccnc3)no2)CC1)Cc1ccccc1F"
observable = "pIC50"
result = "> 6.30"

[[record]]
molecule = "N[C@@H](CC(=O)N1CCC(c2nnc(-c3cccc(C(F)(F)F)c3)o2)CC1)Cc1ccccc1F"
observable = "pIC50"
result = "5.70 to 6.30"

[[record]]
molecule = "N[C@@H](CC(=O)N1CCCC(F)(F)C1)Cc1ccccc1F"
observable = "pIC50"
result = "5.70 to 6.30"

[[record]]
molecule = "N[C@@H](CC(=O)N1CC[C@H](NC(=O)C2CC2)C1)Cc1ccccc1F [Example 52, trifluoroacetic acid salt]"
observable = "pIC50"
result = "> 6.30"

[[record]]
molecule = "N[C@@H](CC(=O)N1CCCC1Cc1ccc(Cl)cc1)Cc1ccccc1F (some centres unmarked)"
observable = "pIC50"
result = "> 6.30"

